Each entry below carries its recorded Ki.
System: human α2δ-1 subunit of Cav2.2 calcium channel (Homo sapiens (Human))
Sequence (P54289 25-1103): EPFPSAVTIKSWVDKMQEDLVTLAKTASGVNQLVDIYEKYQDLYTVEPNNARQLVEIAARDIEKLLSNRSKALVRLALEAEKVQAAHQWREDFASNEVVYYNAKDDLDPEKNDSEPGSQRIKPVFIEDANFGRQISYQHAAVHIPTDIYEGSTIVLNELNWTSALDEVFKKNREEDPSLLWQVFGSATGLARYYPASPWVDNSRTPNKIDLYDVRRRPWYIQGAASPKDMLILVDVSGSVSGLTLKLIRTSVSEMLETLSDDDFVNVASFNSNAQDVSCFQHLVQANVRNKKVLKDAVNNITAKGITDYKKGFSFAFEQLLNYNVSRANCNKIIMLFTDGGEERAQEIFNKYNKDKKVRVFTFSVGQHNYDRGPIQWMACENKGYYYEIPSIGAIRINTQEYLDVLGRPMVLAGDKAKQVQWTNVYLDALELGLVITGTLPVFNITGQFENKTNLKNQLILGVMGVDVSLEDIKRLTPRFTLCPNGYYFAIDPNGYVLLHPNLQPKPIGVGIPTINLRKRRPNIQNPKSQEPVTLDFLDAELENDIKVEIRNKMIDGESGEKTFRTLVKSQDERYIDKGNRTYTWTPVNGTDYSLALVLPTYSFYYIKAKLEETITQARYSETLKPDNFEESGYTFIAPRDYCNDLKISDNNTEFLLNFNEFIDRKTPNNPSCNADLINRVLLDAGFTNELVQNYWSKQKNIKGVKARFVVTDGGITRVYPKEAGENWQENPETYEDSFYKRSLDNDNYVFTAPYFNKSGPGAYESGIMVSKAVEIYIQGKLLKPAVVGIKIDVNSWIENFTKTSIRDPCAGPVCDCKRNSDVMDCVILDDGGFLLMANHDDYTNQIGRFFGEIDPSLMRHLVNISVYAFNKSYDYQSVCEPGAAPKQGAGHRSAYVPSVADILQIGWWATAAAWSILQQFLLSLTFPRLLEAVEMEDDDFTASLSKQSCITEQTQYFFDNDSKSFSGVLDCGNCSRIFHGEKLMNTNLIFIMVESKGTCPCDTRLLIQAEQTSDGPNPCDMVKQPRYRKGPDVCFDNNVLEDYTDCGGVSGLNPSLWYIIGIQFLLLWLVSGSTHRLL
Measurement Description: Binding assay to human α2δ-1 subunit of Cav2.2 calcium channel ([3H]-Gabapentin)
Condition Summary: Table 2, dual compounds; [3H]-Gabapentin binding; read-out: Ki (nM) α2δ-1

| Compound | Ki |
| --- | --- |
| CNCC[C@H](OCc1cccc(N2CCN(C)c3nc(SC)ncc3C2=O)c1)c1cccs1 | > 3000 nM |

*Q* Dear colleague, I am looking for the recorded Ki of the following compound: CCNc1ncc2c(n1)N(C)CCN(c1cccc(COCC(NC)c3ccccc3)c1)C2=O (stereo not shown)
*A* 500 to 3000 nM

*Q* Item: `CNCC[C@@H](OCc1cccc(N2CCN(C)c3nc(N(C)C)ncc3C2=O)c1)c1ccccc1`
*A* 500 to 3000 nM

*Q* Item: `CNCC[C@H](Oc1ccc(CN2CCN(C)c3nc(N(C)C)ncc3C2=O)cc1)c1cccs1`
*A* 100 to 500 nM

*Q* Item: `CNCC[C@@H](OCc1cccc(N2CCN(C)c3nc(N(C)Cc4ccccn4)ncc3C2=O)c1)c1ccccc1`
*A* 100 to 500 nM
